- test_protocol: Fluorescent AGEs formation in a BSA-fructose/glucose system
- Format: biochemical
- applied_conditions: 4000 µM; mean of 3 replicates
# reported inhibition of fluorescent AGEs formation (BSA-抗糖化), 平均 (mean); entries follow
# output: number + unit

{"molecule": "COc1cc(-c2oc3cc(O)cc(O)c3c(=O)c2OC2OC(CO)C(O)C(O)C2O)ccc1O (stereo not shown) [compound 32, Isorhamnetin-3-O-glucoside]", "meas_value": "95.51%"}
{"molecule": "O=c1cc(-c2ccc(O)cc2)oc2c(C3OCC(O)C(O)C3O)c(O)c(C3OCC(O)C(O)C3O)c(O)c12 (stereo not shown) [compound 26]", "meas_value": "95.27%"}
{"molecule": "O=C(O)CC(=O)OCC1OC(Oc2c(-c3ccc(O)c(O)c3)oc3cc(O)cc(O)c3c2=O)C(O)C(O)C1O (stereo not shown) [compound 27, Quercetin 3-O-(6″-malonyl-glucoside)]", "meas_value": "94.62%"}

Please examine the following record next.
Value of inhibition of fluorescent AGEs formation (BSA-抗糖化), 平均 (mean) reported for the molecule O=c1c(O[C@@H]2O[C@H](CO)[C@@H](O)[C@H](O)[C@H]2O)c(-c2ccc(O)cc2)oc2cc(O)cc(O)c12 [compound 31, Astragalin] is 94.53%
